# Test system: MS2 coat protein
# EXPERIMENT_SUMMARY: apparent KD of MS2 coat protein; designed switch direction (-1 OFF switch, 1 ON switch): -1; higher = weaker reporter binding
# CONDITION_DESCRIPTION: input ligand: none
Class definitions on apparent KD of MS2 coat protein: interval 1: < 0.03 µM; interval 2: ≥ 0.03 µM and < 0.04 µM; interval 3: ≥ 0.04 µM

Some solved entries appear below for comparison.
[[record]]
record_sequence = "GUAAUGCUGCGAGGAUAUACAUGAGGAUCACCCAUGUGGAUGUCUGAGGCAAAGCCUCAGACGAUGUAGAAGGCGCAGUAAAAU [Mat - Exclusion NG 2 - Mod of JL - D54] (Eterna round: R96, puzzle: Exclusion NG 2)"
label = "interval 3"

[[record]]
record_sequence = "UUUGAGUUAGGAUAUGCCAAGUUGCACAUGAGGAUCACCCAUGUGAGGUGCCUUACUUAAGCAGAAGGAACAAUAA [EX5 C.13] (Eterna round: R97, puzzle: Exclusion 5)"
label = "interval 1"

[[record]]
record_sequence = "GCAGGUCGAGGAUAUACAUGAGGAUCACCCAUGUUGAUCAAGCGACUUCGGUCGCAAUGUAGAAGGCGACCUGC [E3/7-A6] (Eterna round: R97, puzzle: Exclusion 3)"
label = "interval 3"

[[record]]
record_sequence = "CACCGUUACGUAGGAUAUGUUACAUGAGGAUCACCCAUGUAAUAAAUGAGAAUUUCGAAUGUAAUACAGAAGGACGGAAUCGGC [Ostracism 70 - Jieux - Exclusion NG 2] (Eterna round: R96, puzzle: Exclusion NG 2)"
label = "interval 2"

[[record]]
record_sequence = "CUUUACAAGCUAAGAUCCUACAUGAGGAUCACCCAUGUGGUCCGGUGACGUGAGUCACCGGACUUAGCUCGUCUUGC [salish99_S_TOV1_R5_094] (Eterna round: R97, puzzle: Sensor, turn-off variant 1)"
label = "interval 2"

[[record]]
record_sequence = "AUAAAUCAUGUAGGAUAUGCGUGGCGAAGCUAUGCAGAAGGACAUGAGGAUCACCCAUGUUCUUCCGUCUGCGUACAGACGGAA [Mat - Exclusion NG 1 - Mod of JL - D39] (Eterna round: R96, puzzle: Exclusion NG 1)"
label = "interval 2"

[[record]]
record_sequence = "GAUCCUUCUGUUAGGAUAUGCUUUGGGCUUCCGCAGCAGAAGGAACAUGAGGAUCACCCAUGUCAAAUAAAAUC [salish99_bmex4_r4_501] (Eterna round: R97, puzzle: Brourd's mod of Exclusion 4)"
label = "interval 1"

[[record]]
record_sequence = "UGCGGGCUUUUGAGACCUCACAUGAGGAUCACCCAUGUGCUUGUCUUGUGAGUGGGUAGGUCGUUGGCUGACUCACG [Sensor-V1 #99] (Eterna round: R97, puzzle: Sensor, turn-off variant 1)"
label = "interval 1"


Next item in the queue.
Which category does the recorded apparent KD of MS2 coat protein put GUAGCUCUCGAGGAUAUGGAUAGAAAAGUUAGUCCAGAAGGCGAGACAUGAGGAUCACCCAUGUUGGACUCUGC [Eternabot (L2) Solution 77] (Eterna round: R97, puzzle: Exclusion 6) in?
interval 3

###

Reported apparent KD of MS2 coat protein by item:
# Tested on: MS2 coat protein
# EXPERIMENT_SUMMARY: apparent KD of MS2 coat protein; designed switch direction (-1 OFF switch, 1 ON switch): 1; higher = weaker reporter binding
# CONDITION_DESCRIPTION: input ligand: microRNA oligo, concentration not stated

Reference set, count: 2
[[record]]
record_sequence = "UUGCUUCUCGUAGGAUAUGUAGGAUAUGCCUACAUGAGGAUCACCCAUGUUCGCAUGGCAGAAGGACAGAAGGACGAUCACCCU [pwkr ssNG2 2FMN + 1F5.8] (Eterna round: R96, puzzle: Same State NG 2)"
result = "0.0881 µM"

[[record]]
record_sequence = "CUGCUCGGGUGAGGAUAUGCCGCCGUUUCGGCUGCAGAAGGUGCUACGUUACAUGAGGAUCACCCAUGUCUCUGUUGUUUCGUC [salish99_SSNG1_r04_967] (Eterna round: R96, puzzle: Same State NG 1)"
result = "0.041 µM"


Please look up its apparent KD of MS2 coat protein: UGUUGUAUUACAGGAUAUCUAUGAUUUUGAUUUAGAGAAGGGUAUUCACAUGAGGAUCACCCAUGUAUAUACGAGGAAGUUGUG [JMF's solution 64] (Eterna round: R96, puzzle: Same State NG 1)
0.0404 µM

Provenance of the data: the supplement of paper PMC9170038
